experiment: Approximate solubility of the starting compound in solvents and solvent mixtures; type: physicochemical; conditions: organic solvent or mixture, thermodynamic from solid, DMSO
measuredEndpoint: solubility

Lookup: Give recorded solubility. O=C(NCc1ncccc1F)c1coc(CCNCCc2nc3ccccc3[nH]2)n1 [SP236-FB-P1]
Found: > 100 mg/mL

====

experiment: Approximate solubility of the starting compound in solvents and solvent mixtures; assay type: physicochemical; settings: organic solvent or mixture, thermodynamic from solid, Ethanol
measuredEndpoint: solubility

Lookup: Give recorded solubility. O=C(NCc1ncccc1F)c1coc(CCNCCc2nc3ccccc3[nH]2)n1 [SP236-FB-P1]
Found: > 100 mg/mL

====

test: Approximate solubility of the starting compound in solvents and solvent mixtures; type: physicochemical; conditions: organic solvent or mixture, thermodynamic from solid, THF
measuredEndpoint: solubility

Lookup: Give recorded solubility. O=C(NCc1ncccc1F)c1coc(CCNCCc2nc3ccccc3[nH]2)n1 [SP236-FB-P1]
Found: > 200 mg/mL

====

assay: Approximate solubility of the starting compound in solvents and solvent mixtures; format: physicochemical; conditions: aqueous with cosolvent or surfactant or cyclodextrin, thermodynamic from solid, 2-propanol-water 1:3
measuredEndpoint: solubility

Lookup: Give recorded solubility. O=C(NCc1ncccc1F)c1coc(CCNCCc2nc3ccccc3[nH]2)n1 [SP236-FB-P1]
Found: 39 to 47 mg/mL

====

assay: Approximate solubility of the starting compound in solvents and solvent mixtures; format: physicochemical; conditions: organic solvent or mixture, thermodynamic from solid, 2-Propanol
measuredEndpoint: solubility

Lookup: Give recorded solubility. O=C(NCc1ncccc1F)c1coc(CCNCCc2nc3ccccc3[nH]2)n1 [SP236-FB-P1]
Found: 80 to 120 mg/mL

====

assay: Approximate solubility of the starting compound in solvents and solvent mixtures; format: physicochemical; settings: aqueous with cosolvent or surfactant or cyclodextrin, thermodynamic from solid, Methanol-water 1:1
measuredEndpoint: solubility

Lookup: Give recorded solubility. O=C(NCc1ncccc1F)c1coc(CCNCCc2nc3ccccc3[nH]2)n1 [SP236-FB-P1]
Found: > 100 mg/mL

====

assay: Approximate solubility of the starting compound in solvents and solvent mixtures; assay type: physicochemical; conditions: organic solvent or mixture, thermodynamic from solid, Methanol
measuredEndpoint: solubility

Lookup: Give recorded solubility. O=C(NCc1ncccc1F)c1coc(CCNCCc2nc3ccccc3[nH]2)n1 [SP236-FB-P1]
Found: > 200 mg/mL
